Tested on: Wistar Ratten
Test: Geller-Seifter conflict test
Type: in vivo, Ratte
Conditions: Rattus norvegicus, po, 0.5 h; p.o., 30 min before test, lowest dose with significant change of lever press rate; read-out: Geller Ratte MED
Would you kindly list minimal effective dose for each of these compounds?
Give bare numbers, in mg/kg.

> print(dat)
                          smiles.structure         system    experimental.readout  units.text  readout.value
1   CC(C)(C)Nc1nc(NC(C)(C)C)nc(N2CCCCC2)n1  Wistar Ratten  minimal effective dose       mg/kg              3
2  CC(C)(C)Nc1nc(NN2CCOCC2)nc(NC(C)(C)C)n1  Wistar Ratten  minimal effective dose       mg/kg            2.5
3     CN(C)Nc1nc(NC(C)(C)C)nc(NC(C)(C)C)n1  Wistar Ratten  minimal effective dose       mg/kg             10

# input for lookup
# lookup: "CC(C)Nc1nc(NC(C)(C)C)nc(NC(C)(C)C)n1" on Wistar Ratten, minimal effective dose = 10

###

Test system: Wistar Ratten
Assay: Lick-shock-conflict test (Vogel)
Format: in vivo, Ratte
Conditions: Rattus norvegicus, po, lowest dose with significant increase of lickings in the shock phase; read-out: Lick-Sh. Ratte MED
Text: Die Angst-lösende (anxiolytische Wirkung) der erfindungsgemäßen Verbindungen wurde im "Lick-shock-conflict- Test" nach VOGEl und im "Geller-Seifter-Konflikt-Test" nach GELLER und SEIFTER an WISTAR-Ratten geprüft. 3. Lick-shock-conflict-Test Methode (VOGEL, J.R., Psychopharmacologia 21, (1971), 1-7 Männliche Wistar Ratten aus eigener Aufzucht (SPF Hattersheim) im Gewicht zwischen 90 und 120 g werden verwendet. Den Tieren wird für 48 Stunden vor Testbeginn das Trinkwasser entzogen. […]
Give measured minimal effective dose for each item. Keep answers brief.
Numbers only, in mg/kg.

> print(dat)
                                   compound         system    experimental.readout  units.text  readout.value
1   CC(C)(C)Nc1nc(NN2CCCCC2)nc(NC(C)(C)C)n1  Wistar Ratten  minimal effective dose       mg/kg             10
2      CC(C)Nc1nc(NC(C)(C)C)nc(NC(C)(C)C)n1  Wistar Ratten  minimal effective dose       mg/kg             10
3     CCN(CC)c1nc(NC(C)(C)C)nc(NC(C)(C)C)n1  Wistar Ratten  minimal effective dose       mg/kg             30
4      CN(C)Nc1nc(NC(C)(C)C)nc(NC(C)(C)C)n1  Wistar Ratten  minimal effective dose       mg/kg             10
5    CC(C)(C)Nc1nc(NC(C)(C)C)nc(N2CCCCC2)n1  Wistar Ratten  minimal effective dose       mg/kg             10
6  CC(C)C(C)Nc1nc(NC(C)(C)C)nc(NC(C)(C)C)n1 (stereo not shown)  Wistar Ratten  minimal effective dose       mg/kg             30
7    CC(C)(C)Nc1nc(NC2CCCC2)nc(NC(C)(C)C)n1  Wistar Ratten  minimal effective dose       mg/kg             30
8    CC(C)(C)Nc1nc(NC(C)(C)C)nc(-n2ccnc2)n1  Wistar Ratten  minimal effective dose       mg/kg             30
9   CC(C)(C)Nc1nc(NN2CCOCC2)nc(NC(C)(C)C)n1  Wistar Ratten  minimal effective dose       mg/kg             10

Consider the additional compound presented here.
minimal effective dose recorded for this compound, "CC(C)(C)Nc1nc(NC(C)(C)C)nc(N2CCCC2)n1" , is 10
